Target: Protein kinase C epsilon type (Homo sapiens) (UniProt Q02156)
Sequence (Q02156 whole entry): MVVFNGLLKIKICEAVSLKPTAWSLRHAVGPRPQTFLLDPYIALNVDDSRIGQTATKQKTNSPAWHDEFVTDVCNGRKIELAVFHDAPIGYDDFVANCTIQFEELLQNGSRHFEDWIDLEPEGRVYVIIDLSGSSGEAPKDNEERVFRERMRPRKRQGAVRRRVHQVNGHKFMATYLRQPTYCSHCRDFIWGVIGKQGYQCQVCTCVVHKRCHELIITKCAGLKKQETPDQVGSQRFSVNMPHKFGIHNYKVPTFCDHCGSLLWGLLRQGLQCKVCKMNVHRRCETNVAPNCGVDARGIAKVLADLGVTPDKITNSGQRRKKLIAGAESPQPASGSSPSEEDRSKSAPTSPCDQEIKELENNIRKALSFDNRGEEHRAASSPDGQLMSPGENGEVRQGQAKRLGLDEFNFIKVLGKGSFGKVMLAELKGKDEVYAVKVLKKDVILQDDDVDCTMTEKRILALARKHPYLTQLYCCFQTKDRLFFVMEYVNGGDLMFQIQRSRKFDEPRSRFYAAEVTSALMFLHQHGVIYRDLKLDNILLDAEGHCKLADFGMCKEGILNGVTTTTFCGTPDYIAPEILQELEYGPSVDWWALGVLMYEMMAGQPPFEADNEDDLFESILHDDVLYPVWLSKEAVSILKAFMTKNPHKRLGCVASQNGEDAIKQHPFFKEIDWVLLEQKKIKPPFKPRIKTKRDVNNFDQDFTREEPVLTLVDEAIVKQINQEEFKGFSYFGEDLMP
Experiment: Inhibition of PKCepsilon (unknown origin) at 50 nM by Z'LYTE screening method relative to control
property-measured: inhibition (%)

Examples with their reported inhibition follow.
CCCNc1nc(-n2[se]c3ccccc3c2=O)nc2[nH]cnc12 ... 6
O=C1c2ccccc2CN1c1nc(N[C@H]2CC[Se]C2)c2nc[nH]c2n1 ... 2

A: O=C1c2ccccc2CN1c1nc(NC2CCCC2)c2nc[nH]c2n1
B: O=c1c2ccccc2[se]n1-c1nc(NC2CCCCC2)c2nc[nH]c2n1
Compare inhibition: is it lower for A or for B ? Lab note: record the label of whichever item you select.
A

A: CCN(CC)CCCC(C)Nc1nc(N2Cc3ccccc3C2=O)nc2[nH]cnc12 (centres undefined)
B: C[C@@H]1[C@H]2C[C@@H](C[C@H]1Nc1nc(-n3[se]c4ccccc4c3=O)nc3[nH]cnc13)C2(C)C
For the pair A and B , which entry has the numerically smaller recorded inhibition? Reply with the label of the item you choose.
B
(B: 2%, A: 4%)

1: O=c1c2ccccc2[se]n1-c1nc(Nc2ccccc2)c2nc[nH]c2n1
2: O=c1c2ccccc2[se]n1-c1nc(N[C@@H]2C[C@H]3CC[C@@H]2C3)c2nc[nH]c2n1
Field: lower recorded inhibition (choose 1 or 2 ) # answer = label of selected item
1

---

Target: Protein kinase C delta type (Homo sapiens) (UniProt Q05655)
Sequence (Q05655 whole entry, looked up): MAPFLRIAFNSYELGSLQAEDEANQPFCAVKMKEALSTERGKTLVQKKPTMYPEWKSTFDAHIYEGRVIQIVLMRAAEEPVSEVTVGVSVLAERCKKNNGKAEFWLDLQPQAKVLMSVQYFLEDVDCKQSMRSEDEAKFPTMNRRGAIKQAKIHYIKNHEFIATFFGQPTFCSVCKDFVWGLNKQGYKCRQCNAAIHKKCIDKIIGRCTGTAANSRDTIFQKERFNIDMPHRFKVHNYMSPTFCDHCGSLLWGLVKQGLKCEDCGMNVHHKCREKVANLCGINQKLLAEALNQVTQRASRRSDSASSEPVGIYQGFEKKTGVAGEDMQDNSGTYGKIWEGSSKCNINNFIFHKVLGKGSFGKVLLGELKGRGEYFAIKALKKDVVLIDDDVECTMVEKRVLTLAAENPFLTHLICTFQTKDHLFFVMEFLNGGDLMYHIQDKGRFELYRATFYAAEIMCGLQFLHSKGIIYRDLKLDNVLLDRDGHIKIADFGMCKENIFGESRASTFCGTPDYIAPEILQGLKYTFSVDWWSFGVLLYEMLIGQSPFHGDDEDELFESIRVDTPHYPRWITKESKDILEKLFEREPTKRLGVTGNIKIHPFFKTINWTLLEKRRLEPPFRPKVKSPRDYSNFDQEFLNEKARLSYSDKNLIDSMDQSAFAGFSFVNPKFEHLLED
Assay: Inhibition of PKCdelta (unknown origin) at 50 nM by Z'LYTE screening method relative to control
property-measured: inhibition (%)

O=c1c2ccccc2[se]n1-c1nc(NC2CCCCC2)c2nc[nH]c2n1 ... 0

I: CCN(CC)CCCC(C)Nc1nc(N2Cc3ccccc3C2=O)nc2[nH]cnc12 (stereo not drawn)
II: CCN(CC)CCCC(C)Nc1nc(-n2[se]c3ccccc3c2=O)nc2[nH]cnc12 (stereo not drawn)
Please compare: I and II . Report which one has the smaller inhibition value. Returns: label corresponding to the selected item.
I
(I: 0%, II: 6%)

---

Target: Serine/threonine-protein kinase D1 (Homo sapiens) (UniProt Q15139)
Sequence (Q15139 whole entry): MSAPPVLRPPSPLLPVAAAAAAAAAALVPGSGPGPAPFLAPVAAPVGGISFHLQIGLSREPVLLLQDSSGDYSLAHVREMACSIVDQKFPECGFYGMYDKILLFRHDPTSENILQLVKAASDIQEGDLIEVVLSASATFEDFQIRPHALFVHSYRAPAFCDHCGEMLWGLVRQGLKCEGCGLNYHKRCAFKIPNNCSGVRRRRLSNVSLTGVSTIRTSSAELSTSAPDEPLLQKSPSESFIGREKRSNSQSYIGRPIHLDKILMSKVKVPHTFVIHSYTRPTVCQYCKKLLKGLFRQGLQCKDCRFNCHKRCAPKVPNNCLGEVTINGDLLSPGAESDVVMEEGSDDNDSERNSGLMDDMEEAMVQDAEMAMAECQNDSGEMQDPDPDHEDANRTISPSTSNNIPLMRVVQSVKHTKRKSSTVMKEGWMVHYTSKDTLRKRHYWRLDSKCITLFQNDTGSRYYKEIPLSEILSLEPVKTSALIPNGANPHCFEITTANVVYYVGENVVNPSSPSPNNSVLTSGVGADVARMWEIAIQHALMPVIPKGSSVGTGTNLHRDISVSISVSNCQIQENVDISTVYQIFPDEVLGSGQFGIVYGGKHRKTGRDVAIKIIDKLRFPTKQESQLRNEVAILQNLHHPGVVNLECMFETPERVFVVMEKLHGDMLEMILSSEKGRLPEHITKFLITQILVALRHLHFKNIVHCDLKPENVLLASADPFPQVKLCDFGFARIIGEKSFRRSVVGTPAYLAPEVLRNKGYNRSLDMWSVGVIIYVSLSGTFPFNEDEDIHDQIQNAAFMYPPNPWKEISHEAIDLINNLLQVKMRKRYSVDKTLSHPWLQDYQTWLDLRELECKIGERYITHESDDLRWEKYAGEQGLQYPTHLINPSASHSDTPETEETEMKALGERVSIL
Assay: Inhibition of PKCmu (unknown origin) at 50 nM by Z'LYTE screening method relative to control
property-measured: inhibition (%)

Guide cases for inhibition, answers given:
O=C1c2ccccc2CN1c1nc(NC2CCCCC2)c2nc[nH]c2n1 ... 6
C[C@@H]1[C@H]2C[C@@H](C[C@H]1Nc1nc(-n3[se]c4ccccc4c3=O)nc3[nH]cnc13)C2(C)C ... 1

1: O=c1c2ccccc2[se]n1-c1nc(N[C@@H]2C[C@H]3CC[C@@H]2C3)c2nc[nH]c2n1
2: O=C1c2ccccc2CN1c1nc(NC2CCCC2)c2nc[nH]c2n1
Of the two listed items, which has the higher inhibition? First: 1 Second: 2 // return label of chosen record
1
(1: 2%, 2: 1%)

I: CCN(CC)CCCC(C)Nc1nc(-n2[se]c3ccccc3c2=O)nc2[nH]cnc12 (configuration not stated)
II: CCN(CC)CCCC(C)Nc1nc(N2Cc3ccccc3C2=O)nc2[nH]cnc12 (configuration not stated)
Which entry shows the lesser value of inhibition here, I or II ? Refer to your chosen entry by its label in the reply.
II
(II: 0%, I: 4%)

1: O=c1c2ccccc2[se]n1-c1nc(Nc2ccccc2)c2nc[nH]c2n1
2: O=c1c2ccccc2[se]n1-c1nc(NC2CCCCC2)c2nc[nH]c2n1
Looking only at measured inhibition, which entry is lower, 1 or 2 ? Mark your answer with the label of the selected entry.
1
(1: 3%, 2: 5%)
